measure-name: melting point (°C)

CCOc1cc2c(cc1C(F)(F)F)NC(=O)CC(c1cccc(-c3ccnc(CC(C)C)c3)c1)=N2 203
CCOc1cc2c(cc1C(F)(F)F)NC(=O)CC(c1cccc(-c3ccnc(C(C)C)c3)c1)=N2 217
CCOc1cc2c(cc1C(F)(F)F)NC(=O)CC(c1ccnc(-c3cccnc3)c1)=N2 249
CCCN(C)c1cc2c(cc1C(F)(F)F)NC(=O)CC(c1cccc(-c3ccncc3)c1)=N2 192
Cc1cc2c(cc1C(F)(F)F)NC(=O)CC(c1cccc(-c3ccnc(C)c3C)c1)=N2 222

----------
measure-name: melting point (°C)

compound	melting point [°C]
O=C1CC(c2cccc(-c3cncnc3)c2)=Nc2ccc(Cl)cc2N1 [Example 94]	234
Cc1cncc(-c2cccc(C3=Nc4cc(Cl)c(C)cc4NC(=O)C3)c2)n1 [Example 132]	254
Cc1cc(-c2cccc(C3=Nc4cc(N5CCCC5)c(C(F)(F)F)cc4NC(=O)C3)c2)ccn1 [Example 365]	223
CCCN(C)c1cc2c(cc1C(F)(F)F)NC(=O)CC(c1cccc(-c3ccnc(C)c3)c1)=N2 [Example 80]	192
COCc1cc(-c2cccc(C3=Nc4cc(C)c(C(F)(F)F)cc4NC(=O)C3)c2)ccn1 [Example 361]	225
COCc1cc(-c2cccc(C3=Nc4cc(C)c(Cl)cc4NC(=O)C3)c2)ccn1 [Example 399]	216
Cc1cc(-c2cccc(C3=Nc4ccc(-n5cccc5)cc4NC(=O)C3)c2)ccn1 [Example 108]	206
CCOc1cc2c(cc1C(F)(F)F)NC(=O)CC(c1cccc(-c3cc(C)ncc3CC)c1)=N2 [Example 152]	191
Cc1cc2c(cc1C(F)(F)F)N=C(c1cccc(-c3ccncc3)c1)CC(=O)N2 [Example 64]	217
